Recorded values, source ChEMBL document CHEMBL3988442.

Some compounds, each annotated with its measured Percent Effect.
- Tested on: Wolbachia pipientis
- TEST PROTOCOL: Anti-Wolbachia Cell-Based Screen
- Format: functional
- Set-up: scale not given: in the data most compounds retested in dose-response had high values
- STATED CONDITIONS: 5 µM
Screen size: about 48,000 compounds; about 13,000 (27%) showed an effect of 50% or more. Some of the results follow.

Worked cases, answers included:
- COMPOUND: "Cc1nc(C)n(CC2CCCN(CCCOc3ccccc3)C2)n1 (centres undefined)"
  Percent Effect: "-19.22%"
- COMPOUND: "Cn1nc(Cn2cccn2)c2c1CN(C1CCOCC1)C2.O=C(O)C(F)(F)F"
  Percent Effect: "2.859%"
- COMPOUND: "CN1CCC(Oc2ccc(NC(=O)c3ccccc3Br)cc2)CC1"
  Percent Effect: "-1.249%"
- COMPOUND: "O=C1CC(c2ccccc2)c2c(n3ccsc3nc2=O)N1 (centres undefined)"
  Percent Effect: "12.02%"

Task item: Supply measured Percent Effect of O=C(NS(=O)(=O)c1ccc(F)cc1)C1CCOc2ccccc21 (centres undefined) in your reply.
Reply: -10.91%

Task item: Dear colleague, please send me the reported Percent Effect for COc1ccccc1C(=O)N1CCC(O)(c2cccc(C)c2C)CC1 when you can.
Reply: 6.429%

Task item: Supply Percent Effect value. Item: COCCN1CCN(C(=O)N2CCCC2)Cc2ccc(C)nc21.O=C(O)C(F)(F)F
Reply: 6.866%

Task item: // Input: O=C(c1cc(-c2ccco2)nc2c(Cl)cccc12)N1C[C@H]2CNC[C@H]2C1 . Output its Percent Effect only.
Reply: 10.23%

Task item: // fetch Percent Effect given entry Fc1ccc(CN2CCCC(Cn3cncn3)C2)c2ncccc12 (centres undefined)
Reply: 0.09463%

Task item: Read the entry CCOc1cccc(C(C)NC(=O)N2CCC(C(N)=O)CC2)c1 (centres undefined) and write its reported Percent Effect.
Reply: -12.9%

Task item: Supply reported Percent Effect belonging to this compound: Cc1ccc2c(n1)N(CCn1cccn1)CCN(S(C)(=O)=O)C2.O=C(O)C(F)(F)F
Reply: 91.26%

Task item: Identify measured Percent Effect associated with COc1cc(CN(C)C(=O)NCc2cccnc2OC)ccc1SC
Reply: -20.02%

Task item: Read off the recorded Percent Effect for Cc1nn(C)cc1C1=NS(=O)(=O)N(C)C(C(=O)Nc2ccc(Br)cc2)=C1
Reply: 160.2%

Task item: Quickly give me recorded Percent Effect for O=C1COc2ccc(C(=O)NS(=O)(=O)c3ccc(F)cc3F)cc2N1
Reply: 1.32%

Task item: Name the recorded Percent Effect of the compound listed here: CCN(Cc1ccoc1)C(=O)Nc1ccccc1CN1CCOCC1
Reply: 2.801%

Task item: Hello, please tell me recorded Percent Effect for this one: COc1ccc(S(=O)(=O)Cc2cc(C)on2)cc1
Reply: 3.84%

Task item: Let me know recorded Percent Effect for CC(=O)NCCC(=O)NCc1cccnc1-n1cnc2ccccc21 , thanks.
Reply: -3.508%

Task item: Check the records and state Percent Effect for Cc1nc(C)n(CC2CCCN(CCOc3cccc(C#N)c3)C2)n1 (centres undefined)
Reply: -2.683%

Task item: Read off the recorded Percent Effect for Cc1ccc2c(n1)N(Cc1csc(C)n1)CCN(C1CCOC1)C2.O=C(O)C(F)(F)F.O=C(O)C(F)(F)F (centres undefined)
Reply: 9.97%

Task item: Give Percent Effect for the following compound: COc1cc2cc(C(=O)NC(C)C(=O)O)n(C)c2c(OC)c1OC (centres undefined)
Reply: 0.3251%

Task item: Indicate its recorded Percent Effect; the compound in question is Cc1nc(C)n(CC2CCCN(CCCOc3ccc(F)cc3)C2)n1 (centres undefined)
Reply: 86.71%

Task item: Using known records, supply Percent Effect for CCS(=O)(=O)N1CCN(CCn2cccn2)c2nc(C)ccc2C1.O=C(O)C(F)(F)F
Reply: 99.61%

Task item: Find the measured Percent Effect of Fc1ccc(OCCCN2CCCC(Cn3cncn3)C2)cc1 (centres undefined) and report it.
Reply: 107.3%

Task item: Identify Percent Effect associated with the compound Cc1nc(C)n(CC2CCCN(CCOc3cccc(F)c3)C2)n1 (centres undefined)
Reply: 75.5%
